Target: CYP1A2 (Rattus norvegicus, UniProt P04799)
Sequence (P04799 2-513): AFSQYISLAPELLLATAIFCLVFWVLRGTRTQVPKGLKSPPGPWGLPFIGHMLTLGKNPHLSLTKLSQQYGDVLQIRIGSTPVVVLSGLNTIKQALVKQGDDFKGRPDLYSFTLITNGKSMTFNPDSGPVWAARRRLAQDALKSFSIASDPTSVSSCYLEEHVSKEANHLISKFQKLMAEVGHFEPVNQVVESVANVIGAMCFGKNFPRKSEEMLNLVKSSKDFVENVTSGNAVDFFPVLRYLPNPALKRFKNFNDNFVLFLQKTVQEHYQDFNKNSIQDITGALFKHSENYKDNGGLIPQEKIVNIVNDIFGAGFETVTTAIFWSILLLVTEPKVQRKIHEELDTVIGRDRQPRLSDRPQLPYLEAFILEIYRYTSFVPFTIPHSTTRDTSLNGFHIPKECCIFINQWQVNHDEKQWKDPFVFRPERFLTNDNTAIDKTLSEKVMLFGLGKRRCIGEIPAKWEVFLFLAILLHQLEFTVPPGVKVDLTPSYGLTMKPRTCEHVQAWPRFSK
metric: IC50 (µM)
One number for each entry, in µM.

Form field IC50, entry C=C(C)[C@H](CC=C(C)C)Cc1c(O)cc(OC)c2c1O[C@H](c1ccc(O)cc1O)CC2=O [Kurarinone] : 10
